System: mice with bleomycin-induced pulmonary fibrosis
Assay: Survival rate of mice with bleomycin-induced pulmonary fibrosis
Format: in vivo, C57BL/6 mice
Settings: Table 3 groups: 2 mg/kg i.p., 10th to 28th day after modeling, twice a week; 21 days
Bridge positions count the residues as written; N and C are the ends. Square brackets hold non-standard residues; d marks the D form. Peptide text beside a SMILES is read from it. S5 = C=CCCC[C@](C)(N)C(=O)O
result-type: Survival rate (%) 21 days
Value expressed in %; do not type the unit.

Exercise: Look up Survival rate (%) 21 days for this compound: CSCC[C@H](NC(=O)[C@H](CC(C)C)NC(=O)[C@@H](N)Cc1c[nH]cn1)C(=O)N[C@@H](C)C(=O)N[C@@H](CS)C(=O)N[C@@H](Cc1ccccc1)C(=O)N[C@H](C(=O)N[C@@H](CS)C(=O)N[C@@]1(C)CCCC=CCCC[C@@](C)(C(=O)N[C@@H](CCCCN)C(=O)N[C@@H](CCCNC(=N)N)C(=O)O)NC(=O)[C@H](CC(C)C)NC(=O)[C@H](CCCCN)NC(=O)[C@H](CCCCN)NC1=O)[C@@H](C)O [S9] (H-HLMACFTC[S5]KKL[S5]KR-OH; staple 9-13; N-terminus and C-terminus assumed)
Solution: 93.33

Attention now turns to another entry.
Exercise: Looking for the measured Survival rate (%) 21 days of CSCC[C@H](NC(=O)[C@H](CC(C)C)NC(=O)[C@@H](N)Cc1c[nH]cn1)C(=O)N[C@@]1(C)CCCC=CCCC[C@@](C)(C(=O)N[C@@H](C)C(=O)N[C@@H](CCCCN)C(=O)N[C@@H](CCCCN)C(=O)N[C@@H](CC(C)C)C(=O)N[C@@H](CCCCN)C(=O)N[C@@H](CCCCN)C(=O)N[C@@H](CCCNC(=N)N)C(=O)O)NC(=O)[C@H]([C@@H](C)O)NC(=O)[C@H](Cc2ccccc2)NC(=O)[C@H](CS)NC1=O [S4] (H-HLM[S5]CFT[S5]AKKLKKR-OH; staple 4-8; N-terminus and C-terminus assumed) , can you help?
Solution: 80
